EXPERIMENTAL_SYSTEM: Human Factor P (human, UniProt P27918 29-469)
Sequence (P27918 29-469 limits assumed): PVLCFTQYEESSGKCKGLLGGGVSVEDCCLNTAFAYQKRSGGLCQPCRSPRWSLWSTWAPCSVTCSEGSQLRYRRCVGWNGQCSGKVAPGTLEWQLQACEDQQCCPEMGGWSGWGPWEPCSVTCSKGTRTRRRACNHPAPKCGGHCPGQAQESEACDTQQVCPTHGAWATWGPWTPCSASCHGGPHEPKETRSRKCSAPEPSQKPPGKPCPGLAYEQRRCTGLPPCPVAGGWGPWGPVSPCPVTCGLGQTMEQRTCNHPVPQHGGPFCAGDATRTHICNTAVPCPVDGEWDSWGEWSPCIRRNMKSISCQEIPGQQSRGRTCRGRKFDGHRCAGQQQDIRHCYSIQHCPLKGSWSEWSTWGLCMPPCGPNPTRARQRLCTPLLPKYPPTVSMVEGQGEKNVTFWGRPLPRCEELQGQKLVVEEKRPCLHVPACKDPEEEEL
MEASUREMENT_DESCRIPTION: cell-based or functional assay
RECORDED_METRIC: MAC Deposition, 20% Serum EC50 (nM)
Provide the reading as a plain figure in nM.

Record excerpt, results attached:
# BINDER, MAC Deposition, 20% Serum EC50 [nM]
records = [
    ("NVS962-G (Fab, V domains shown, NVS962 with heavy chain N30 replaced with glycine) VH: EVQLVQSGAEVKKPGSSVKVSCKASGGTFGSYAISWVRQAPGQGLEWMGRIIPIFGTANYAQKFQGRVTITADESTSTAYMELSSLRSEDTAVYYCARHGGYSFDSWGQGTLVTVSS VL: SYELTQPPSVSVAPGQTARISCSGDNLGSKYVDWYQQKPGQAPVLVIYSDNNRPSGIPERFSGSNSGNTATLTISGTQAEDEADYYCQTYTSGNNYLVFGGGTKLTVLG", 12.7),
    ("NVS962 (Fab, V domains shown, also called Fab NVS962) VH: EVQLVQSGAEVKKPGSSVKVSCKASGGTFNSYAISWVRQAPGQGLEWMGRIIPIFGTANYAQKFQGRVTITADESTSTAYMELSSLRSEDTAVYYCARHGGYSFDSWGQGTLVTVSS VL: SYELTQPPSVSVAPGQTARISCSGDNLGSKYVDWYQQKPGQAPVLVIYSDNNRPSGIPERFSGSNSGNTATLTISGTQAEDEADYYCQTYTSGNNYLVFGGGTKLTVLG", 18.8),
    ("NVS805 (Fab, V domains shown) VH: EVQLVQSGAEVKKPGSSVKVSCKASGGTFSSYAISWVRQAPGQGLEWMGRIIPIFGTANYAQKFQGRVTITADESTSTAYMELSSLRSEDTAVYYCARHGGYVFDSWGQGTLVTVSS VL: SYVLTQPPSVSVAPGKTARISCSGDNLGSKYVDWYQQKPGQAPVLVIYSDNNRPSGIPERFSGSNSGNTATLTISGTQAMDEADYYCATYDSSPRTEVFGGGTKLTVLG", 5.9),
    ("NVS804 (Fab, V domains shown) VH: EVQLVQSGAEVKKPGSSVKVSCKASGGTFSSYAISWVRQAPGQGLEWMGRIIPIFGTANYAQKFQGRVTITADESTSTAYMELSSLRSEDTAVYYCARHGGYIFDSWGQGTLVTVSS VL: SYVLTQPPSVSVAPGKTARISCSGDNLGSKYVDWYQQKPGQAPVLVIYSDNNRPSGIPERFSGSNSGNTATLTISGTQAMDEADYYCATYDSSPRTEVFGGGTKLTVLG", 5.85),
    ("NVS809 (Fab, V domains shown) VH: EVQLVQSGAEVKKPGSSVKVSCKASGGTFSSYAISWVRQAPGQGLEWMGRIIPIFGTANYAQKFQGRVTITADESTSTAYMELSSLRSEDTAVYYCARHGGYYFDSWGQGTLVTVSS VL: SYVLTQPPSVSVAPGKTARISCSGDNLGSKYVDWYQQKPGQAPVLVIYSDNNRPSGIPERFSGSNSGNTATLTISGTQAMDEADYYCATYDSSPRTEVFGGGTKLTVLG", 6.46),
]

Then there is this binder:
Entry NVS807 (Fab, V domains shown) VH: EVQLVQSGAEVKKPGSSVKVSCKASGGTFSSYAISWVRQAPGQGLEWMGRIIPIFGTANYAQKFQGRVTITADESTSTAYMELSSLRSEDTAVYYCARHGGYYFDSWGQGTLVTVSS VL: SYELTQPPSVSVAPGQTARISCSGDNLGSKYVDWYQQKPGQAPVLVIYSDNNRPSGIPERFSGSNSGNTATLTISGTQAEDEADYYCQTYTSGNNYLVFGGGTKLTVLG : reported MAC Deposition, 20% Serum EC50 = ?
5.4

Where these numbers come from: patent US20130295102A1
